Recorded apparent KD of MS2 coat protein, one value per entry.
Tested on: MS2 coat protein
Experiment description: apparent KD of MS2 coat protein; designed switch direction (-1 OFF switch, 1 ON switch): -1; higher = weaker reporter binding
Measurement conditions: input ligand: microRNA oligo, concentration not stated
Outcome measure: apparent KD of MS2 coat protein

[
  {
    "Sequence code": "UUUUCCUGGCAAGGAUAUCCUGUGCGGUUCCGGCUCGUGUCUGUUACAUGAGGAUCACCCAUGUGGGAGAAGGUGCCUGUGGUU [Design 89] (Eterna round: R96, puzzle: Exclusion NG 2)",
    "Outcome measure": "apparent KD of MS2 coat protein",
    "Reported value": "0.0343 µM"
  },
  {
    "Sequence code": "GACUAAACACGAGGAUAUGCCUGGGAAGAACAGGCAGAAGGCGUGACAUGAGGAUCACCCAUGUAGCCGGGCUAUUCUCGUGUG [Orlaes] (Eterna round: R96, puzzle: Exclusion NG 1)",
    "Outcome measure": "apparent KD of MS2 coat protein",
    "Reported value": "0.0208 µM"
  },
  {
    "Sequence code": "AGCUGUGGCCAAGGAUAUCCAGCCUUAAAUACCGACGUAUAGUCGGACAUGAGGAUCACCCAUGUGGAGAAGGUGGUCUCAGCA [Eli eng2 - 040] (Eterna round: R96, puzzle: Exclusion NG 2)",
    "Outcome measure": "apparent KD of MS2 coat protein",
    "Reported value": "0.045 µM"
  },
  {
    "Sequence code": "ACAUGAGGAUCACCCAUGUGAAAAGAAUGGCUGACACAGAGAUAGGAUAUAUGUGCAUAUCUAACAUAGAAGGGUCAUGACUGG [Deportation 79 - Jieux - Exclusion NG 3] (Eterna round: R96, puzzle: Exclusion NG 3)",
    "Outcome measure": "apparent KD of MS2 coat protein",
    "Reported value": "0.0216 µM"
  },
  {
    "Sequence code": "UGAUCUAGCGGAGGAUAUACAUGAGGAUCACCCAUGUAUAGGCUAUCUGGUGACAGGUGGAACAUGUAGAAGGCCGCUAGAUCU [JL ENG2 3.80] (Eterna round: R96, puzzle: Exclusion NG 2)",
    "Outcome measure": "apparent KD of MS2 coat protein",
    "Reported value": "0.0127 µM"
  },
  {
    "Sequence code": "CAUUGUUAUCGAGGAUAUCGUAUUGAGAUACUACGAGAAGGCGGACUAAACAUGAGGAUCACCCAUGUGAGACGGAUGCUUGGG [Ex NG1 #33] (Eterna round: R96, puzzle: Exclusion NG 1)",
    "Outcome measure": "apparent KD of MS2 coat protein",
    "Reported value": "0.021 µM"
  },
  {
    "Sequence code": "UUUUUAUAUGAAGGAUAUACUUAACAUGAGGAUCACCCAUGUGGUGUUGUGAGUGAGUGAGUUUAGUAGAAGGUCAGUUCUUUU [JMF's solution 79] (Eterna round: R96, puzzle: Exclusion NG 2)",
    "Outcome measure": "apparent KD of MS2 coat protein",
    "Reported value": "0.497 µM"
  },
  {
    "Sequence code": "GUAUAACAUGUAGGAUAUGCAUGGCGAAGCUAUGCAGAAGGACAUGAGGAUCACCCAUGUAAUAGCGUCUGCGUACAGAUGCAA [Mat - Exclusion NG 1 - Mod of JL - D91] (Eterna round: R96, puzzle: Exclusion NG 1)",
    "Outcome measure": "apparent KD of MS2 coat protein",
    "Reported value": "0.0294 µM"
  },
  {
    "Sequence code": "UGUACUAACACGAUAGUGUUAGUACUAUAAGCUUGUGUUACAUGAGGAUCACCCAUGUCCUCAUAAGCUCGUCUUGA [Mat - Sensor v3 - Turn-off var 2 - D93] (Eterna round: R96, puzzle: Sensor v3, turn-off variant 2)",
    "Outcome measure": "apparent KD of MS2 coat protein",
    "Reported value": "0.472 µM"
  }
]

###

System: MS2 coat protein
Experiment description: apparent KD of MS2 coat protein; designed switch direction (-1 OFF switch, 1 ON switch): -1; higher = weaker reporter binding
Measurement conditions: input ligand: none
Outcome measure: apparent KD of MS2 coat protein (nM)

[
  {
    "Sequence code": "GCCUUACAUGAGGAUCACCCAUGUCAGGAUAUCGUUCAAGAUCUGACCUUAGAUCGAUCGAGAAGGGACUGGAU [Eternabot (L1) Solution 39] (Eterna round: R97, puzzle: Exclusion 1)",
    "Outcome measure": "apparent KD of MS2 coat protein",
    "Unit of measurement": "nM",
    "Reported value": 17.2
  },
  {
    "Sequence code": "CAUGAUUGGGAAGGAUAUUGACCUAGUUAGCGCCGAGAAGGUCCCUGUCACAUGAGGAUCACCCAUGUGAAUCUGGUGUUCGAG [Ex NG1 #94] (Eterna round: R96, puzzle: Exclusion NG 1)",
    "Outcome measure": "apparent KD of MS2 coat protein",
    "Unit of measurement": "nM",
    "Reported value": 19.7
  },
  {
    "Sequence code": "AAACGGCAGGGAGGAUAUGCUUGCCUGGGUCGUCUUCAAACAUGAGGAUCACCCAUGUAGUCGACGCAGAAGGCCCUCAAAGCC [JL ViennaUCT Ontiis mod 4] (Eterna round: R96, puzzle: Exclusion NG 2)",
    "Outcome measure": "apparent KD of MS2 coat protein",
    "Unit of measurement": "nM",
    "Reported value": 16.7
  },
  {
    "Sequence code": "GAAACGCGAGGAUAUACAGACGAGUCCAUUACGUGUCUCGGACUUGAGGAUCACCCAAGUAGAAGGCGUCUCAG [salish99_ex2_r4_631] (Eterna round: R97, puzzle: Exclusion 2)",
    "Outcome measure": "apparent KD of MS2 coat protein",
    "Unit of measurement": "nM",
    "Reported value": 27.6
  },
  {
    "Sequence code": "CGGAUGUUAGGAUAUUAGUAGUAGUCAGAAUAGACUAUUACUGAGAAGGAACAUGAGGAUCACCCAUGUUUCCG [Eli x4 4.19] (Eterna round: R97, puzzle: Exclusion 4)",
    "Outcome measure": "apparent KD of MS2 coat protein",
    "Unit of measurement": "nM",
    "Reported value": 17.4
  }
]

###

Test system: K4 kissing-loop RNA reporter;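 further: bound reporter read as fluorescence of individual clusters on recovered sequencing chips by microscopy, with normalized cluster intensities fitted with a binding model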
Experiment description: apparent KD of K4 kissing-loop reporter; higher = weaker reporter binding
Measurement conditions: Eterna round: R107; input ligand: tryptophan 2.4 mM
Each entry gets class 0 if its apparent KD of K4 kissing-loop reporter stays under 300 nM, and class 1 if its apparent KD of K4 kissing-loop reporter is 300 nM or above.

[
  {
    "Sequence code": "AAGCCAUACUCGGCCGCCACUUACUUCGUUGCAGUGAUGUUGCACACGAAUCCGUCAUAGCAAAUAAGGACCGGGAGAUAUACCG [theeternabot_exclusion_KL_Trp_B_19]",
    "Answer label": "class 0"
  },
  {
    "Sequence code": "GCUAUGGUAGGAAGGAGCGCUUGCUCGGUCAUAAGAGUGAUGUUCGAGACCGAGCAUUUAUAGCAGGUAGGUCGCCUACUAUAGC [Arginine B K4 7]",
    "Answer label": "class 0"
  },
  {
    "Sequence code": "AGUAAUGAGUGAUGUUCAAGUAGUAAGGAUACCAGUAAUUCAAAAUGCCCUUGGCAGCUUAGCGCUACCAAUAGAUGGGUAGUGG [Theophilline A V3 (+6G)]",
    "Answer label": "class 0"
  },
  {
    "Sequence code": "GGGUUGAGCGGAAGGAGCGGCUGAACCAGUGAUGUUGGUUAAUCCAAGUGAUGUUGGAAAAGCCAGGUAGGUCGCCGCUUUAUCC [Same State Arg B GF 3]",
    "Answer label": "class 1"
  },
  {
    "Sequence code": "GGAUCCACCAGUGAUGUUGGAAAAUACUCCAAGGAUAUGACGAAAGUCAGAAGGUGGUAGACUGGACAAAGUCCAGUCGGAUCCA [FmnA 27 #SwitchBubble #K4Early]",
    "Answer label": "class 1"
  },
  {
    "Sequence code": "UAAGAAUAGCAUGCAGUGAUGUUGCAUGUCCGAGGACCGGUACGGCCGCCACUCGAGUCCUCGAACAUGCACCGAGGAAUAACAA [#19 K4 Tryptophan A Same State]",
    "Answer label": "class 0"
  },
  {
    "Sequence code": "AGAGUUAUGCGAGGAUAUGCAGUUAGUACUCAAAGAGUACUAACGGCAGAGUGAUGUUCUGUGAAAGCAGAAGGUGCAUAACUCA [Omei KL FMN B SS B v8]",
    "Answer label": "class 1"
  },
  {
    "Sequence code": "GGUUUAUAAGAGGAUACCAGUACAAAUAAAGUACAUUAAUAGUAGAGUGAUGUUCUAAAGUACCCUUGGCAGCUUAGAUUAAGUU [ExTheophylB.F]",
    "Answer label": "class 0"
  },
  {
    "Sequence code": "ACGGGUCGACGAAGGAGCGCCGUGCAGUGAUGUUGCAGUUAGAUCCAGUGAUGUUUGGGCCGGCAGGUAGGUCGCGUCGACUCAU [Exclusion Arginine B GF 21]",
    "Answer label": "class 0"
  },
  {
    "Sequence code": "UGCGCUAUGUCCUAAAACGUCCUCCGGGAUACCAGAGUCUUUUUAUUCCCUUGGCAGCUUGAGUGAUGUUUGAUGCCGUUCUUGU [srrevmullin]",
    "Answer label": "class 1"
  },
  {
    "Sequence code": "AAAUAAAGCAGUCACCCAGUGAUGUUGGAAGGAGCGUGCGAAAGCACAGGUAGGUCGCCGAUAAGGACAAAGUCCAGUGGCUGCA [#SwitchBubble 28 #K4Early]",
    "Answer label": "class 0"
  },
  {
    "Sequence code": "UGGAGUUGACGAAAAGUCAACUCCUGAGAAGGAGCGGACGAAAGUCCAGGUAGGUCGCUCACUACCAGUGAUGUUGGUACUUGAA",
    "Answer label": "class 0"
  }
]
